endpoint.label: melting point

Observe how each entry below is paired with its result.
> print(dat)
                                smiles.text   result.value
1  CCOc1cc(CCC(=O)O)ccc1OCCCc1cn(-c2ccc(C(F)(F)F)cn2)nc1OCC  114 to 115 °C
2  CCCc1nn(-c2ccc(C(F)(F)F)cn2)cc1CCCCOc1c(CC(=O)O)cccc1OC  111 to 112 °C
3  O=C(O)CCc1cc(OCCCc2cn(-c3ccc(C(F)(F)F)cn3)nc2C2CCCCC2)nn1C1CCCCC1  190 to 191 °C

Memo: CC(C)c1nn(-c2ccc(C(F)(F)F)cn2)cc1CCCOc1nn(C2CCCCC2)cc1CC(=O)O , reported melting point: 116 to 117 °C

====

endpoint.label: melting point

Observe how each entry below is paired with its result.
> print(dat)
                                   molecule   result.value
1  Cc1nn(-c2ccc(C(F)(F)F)cn2)cc1CCCOc1cc(CCC(=O)O)n(-c2ccccc2)n1 [Example 128]  125 to 126 °C
2  CCOc1nn(-c2ccc(C(F)(F)F)cc2)cc1CCCOc1ccc(CCC(=O)O)cc1OC [Example 115]  125 to 126 °C
3  Cc1nn(-c2ccc(C(F)(F)F)cn2)cc1CCCOc1ccccc1CC(=O)O [Example 141]  128 to 129 °C

Memo: CCOc1nn(-c2ccc(C(F)(F)F)cn2)cc1CCCOc1c(CC(=O)O)cccc1OC [Example 146] , reported melting point: 122 to 123 °C

Memo: COc1cccc(CC(=O)O)c1OCCCc1cn(-c2ccccn2)nc1C(C)C [Example 312] , reported melting point: 102 to 104 °C

Memo: CCCCOc1cc(CCC(=O)O)ccc1OCCCc1cn(-c2ccc(C(F)(F)F)cn2)nc1OCC [Example 165] , reported melting point: 92 to 93 °C

====

Entries and their melting point values follow.

Observe how each entry below is paired with its result.
> print(dat)
                                smiles.text   result.value
1  Cc1nn(-c2ccc(C(F)(F)F)cn2)cc1COc1cccc(CC(=O)O)c1  142 to 143 °C
2  CCCOc1nn(-c2ccc(C(F)(F)F)cn2)cc1CCCOc1ccc(CCC(=O)O)c(OCC)c1  112 to 113 °C
3  CC(C)c1nn(-c2ccc(C(F)(F)F)cn2)cc1CCCOc1c(Br)cccc1CC(=O)O  146 to 147 °C

Memo: CCCc1nn(-c2ccc(C(F)(F)F)cn2)cc1CCCOc1c(CC(=O)O)cccc1C(C)C , reported melting point: 102 to 103 °C

Memo: CCOc1nn(-c2ccc(C(F)(F)F)cn2)cc1CCCOc1cccc(CC(=O)O)c1 , reported melting point: 134 to 135 °C

Memo: CCC(CC)c1nn(-c2ccc(Br)cn2)cc1CCCOc1c(CC(=O)O)cccc1OC , reported melting point: 94 to 95 °C

====

# target.under.test: PPARδ-RXRα heterodimer (Homo sapiens, UniProt Q03181)
# Sequence (Q03181 whole entry): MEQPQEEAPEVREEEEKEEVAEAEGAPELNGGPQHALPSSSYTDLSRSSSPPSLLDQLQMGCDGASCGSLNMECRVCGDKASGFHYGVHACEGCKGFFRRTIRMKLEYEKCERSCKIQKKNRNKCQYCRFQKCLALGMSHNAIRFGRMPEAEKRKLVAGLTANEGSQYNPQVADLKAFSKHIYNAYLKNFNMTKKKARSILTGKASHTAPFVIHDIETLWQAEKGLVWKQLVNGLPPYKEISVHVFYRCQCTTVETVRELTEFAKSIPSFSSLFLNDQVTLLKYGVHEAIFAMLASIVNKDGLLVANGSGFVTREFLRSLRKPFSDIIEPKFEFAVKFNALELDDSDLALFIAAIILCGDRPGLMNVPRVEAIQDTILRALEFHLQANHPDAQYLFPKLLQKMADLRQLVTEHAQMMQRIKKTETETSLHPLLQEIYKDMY
# Sequence (P19793 whole entry partner): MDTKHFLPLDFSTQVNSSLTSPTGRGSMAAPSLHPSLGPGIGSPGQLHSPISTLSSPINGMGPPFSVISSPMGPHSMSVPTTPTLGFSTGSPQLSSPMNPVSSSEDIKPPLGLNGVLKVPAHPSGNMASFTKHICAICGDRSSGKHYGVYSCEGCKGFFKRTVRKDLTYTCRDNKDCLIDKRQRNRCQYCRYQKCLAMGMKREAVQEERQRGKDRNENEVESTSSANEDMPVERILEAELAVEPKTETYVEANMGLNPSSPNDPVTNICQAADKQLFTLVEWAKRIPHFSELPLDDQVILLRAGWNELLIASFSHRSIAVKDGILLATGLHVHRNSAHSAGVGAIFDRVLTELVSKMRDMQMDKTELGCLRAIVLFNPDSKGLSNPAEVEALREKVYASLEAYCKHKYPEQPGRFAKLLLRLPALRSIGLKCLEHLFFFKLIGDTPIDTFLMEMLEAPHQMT
# assay.name: PPARδ-RXRα heterodimer ligand activity, luciferase reporter in COS-1 transformant (Test Example 4)
# measurement.setup: COS-1 transformant (hPPARδ, hRXRα, reporter), 36-48 hours, concentration for 50% of the maximum fold induction
endpoint.label: pEC50
On this scale, pEC50 is minus log10 of a concentration expressed in M (mol/L).

> print(dat)
                                smiles.text  result.value
1  COc1cc(CCC(=O)O)ccc1OCCCc1cn(-c2ccc(C(F)(F)F)cn2)nc1C(C)C          8.29
2  CCCc1nn(-c2ccc(C(F)(F)F)cn2)cc1CCCOc1ccc(CCC(=O)O)c(C)c1          8.74
3  CCCc1cn(CC(=O)O)nc1OCCCc1cn(-c2ccc(C(F)(F)F)cn2)nc1OCC          8.02
4  CCCc1nn(-c2ccc(C(F)(F)F)cn2)cc1CCCOc1cc(CCC(=O)O)cc(OC)c1          8.72
5  CCOc1ccc(CC(=O)O)cc1OCCCc1cn(-c2ccc(C(F)(F)F)cn2)nc1C1CCCCC1          8.92
6  CCOc1nn(-c2ccc(C(F)(F)F)cn2)cc1CCOc1cccc(CC(=O)O)c1          9.09
7  CCc1cccc(CC(=O)O)c1OCCCc1cn(-c2ccc(C(F)(F)F)cn2)nc1C(C)C          7.27
8  CCOc1nn(-c2ccc(C(F)(F)F)cn2)cc1CCCOc1ccc(CCC(=O)O)c(OC)c1          8.22

Memo: CCCCOc1cc(OCCCc2cn(-c3ccc(C(F)(F)F)cn3)nc2OCC)ccc1CCC(=O)O , reported pEC50: 8.14

Memo: CC(C)c1nn(-c2ccc(C(F)(F)F)cn2)cc1CCCCOc1cc(CCC(=O)O)n(-c2ccccc2)n1 , reported pEC50: 8.77

Memo: CCCc1nn(-c2ccc(C(F)(F)F)cn2)cc1CCCOc1cccc(CC(=O)O)c1 , reported pEC50: 8.41

Memo: CCC(CC)c1nn(-c2ccc(C(F)(F)F)nn2)cc1CCCOc1c(C)cccc1CC(=O)O , reported pEC50: 7.35

Memo: CCCc1nn(-c2ccc(C(F)(F)F)cn2)cc1CCCOc1ccc(CCC(=O)O)c(OC)c1 , reported pEC50: 8.82

Memo: CC(C)c1nn(-c2ccc(C(F)(F)F)cn2)cc1CCCOc1cc(CCC(=O)O)n(-c2ccccc2)n1 , reported pEC50: 8.03

Memo: CCCc1nn(-c2ccc(C(F)(F)F)cn2)cc1CCCOc1c(Br)cccc1CC(=O)O , reported pEC50: 8.21

Memo: O=C(O)CCc1cc(OCCCc2cn(-c3ccc(C(F)(F)F)cn3)nc2C2CCCCC2)nn1-c1ccccc1 , reported pEC50: 8.68
